src = the supplement of paper PMC8728848

system: GlcNAc(b1-3)Gal(b1-4)GlcNAc(b1-3)Gal(b1-4)GlcNAc(b1-3)Gal(b1-4)GlcNAc(b1-2)[GlcNAc(b1-3)Gal(b1-4)GlcNAc(b1-3)Gal(b1-4)GlcNAc(b1-3)Gal(b1-4)GlcNAc(b1-6)]Man(a1-6)[GlcNAc(b1-3)Gal(b1-4)GlcNAc(b1-3)Gal(b1-4)GlcNAc(b1-3)Gal(b1-4)GlcNAc(b1-2)Man(a1-3)]Man(b1-4)GlcNAc(b1-4)[Fuc(a1-6)]GlcNAc
test.protocol: glycan array binding signal (z-score within array); higher = stronger binding
assay.conditions: glycan notation: IUPAC condensed, linker removed
Only a selection was taken, and the strongest signals are over-represented in it overall.
Quick reference for glycan array binding signal (z-score) among some binders
property.measured: glycan array binding signal (z-score)

>  <binder>
Gal 7 (Homo sapiens) (protein) MSNVPHKSSLPEGIRPGTVLRIRGLVPPNASRFHVNLLCGEEGGSDAALHFNPRLDTSEVVFNSKEGGSWGREERGPGVPFGRGQPFEVLIIASDDGFKAVVGDAQYHHFRHRLPLARVRLVEVGGDVQLDSVRIF

>  <assay.result>
5.04

$$$$
>  <binder>
Gal 8 (Homo sapiens) (protein) MLSLNNLQNIIYNPVIPYVGTIPDQLDPGTLIVICGHVPSDADRFQVDLQNGSSVKPRADVAFHFNPRFKRAGCIVCNTLINEKWGREEITYDTPFKREKSFEIVIMVLKDKFQVAVNGKHTLLYGHRIGPEKIDTLGIYGKVNIHSIGFSFSSDLQSTQASSLELTEISRENVPKSGTPQLQTVSPSWDLQGHGSETFCSVLWTRVFLEIAFCRPIGLTVASFQSLPFAARLNTPMGPGRTVVVKGEVNANAKSFNVDLLAGKSKDIALHLNPRLNIKAFVRNSFLQESWGEEERNITSFPFSPGMYFEMIIYCDVREFKVAVNGVHSLEYKHRFKELSSIDTLEINGDIHLLEVRSW

>  <assay.result>
4.87

$$$$
>  <binder>
Jacalin (Artocarpus integrifolia) (protein) MAYSSLLSLSVLALLFSISSADTRKWFLANGINQNPIGIIEAAVGVSEDLLNLNGMEAKNDEQSGISQTVIVGPWGAKVSTSSNGKAFDDGAFTGIREINLSYNKETAIGDFQVVYDLNGSPYVGQNHKSFITGFTPVKISLDFPSEYIMEVSGYTGNVSGYVVVRSLTFKTNKKTYGPYGVTSGTPFNLPIENGLIVGFKGSIGYWLDYFSMYLSL

>  <assay.result>
4.09

$$$$
